- SYSTEM_TESTED: T1, IL10Rα/IL2Rγ receptor (human, UniProt Q13651 22-578; P31785 23-369)
- T1 sequence (looked up) 1: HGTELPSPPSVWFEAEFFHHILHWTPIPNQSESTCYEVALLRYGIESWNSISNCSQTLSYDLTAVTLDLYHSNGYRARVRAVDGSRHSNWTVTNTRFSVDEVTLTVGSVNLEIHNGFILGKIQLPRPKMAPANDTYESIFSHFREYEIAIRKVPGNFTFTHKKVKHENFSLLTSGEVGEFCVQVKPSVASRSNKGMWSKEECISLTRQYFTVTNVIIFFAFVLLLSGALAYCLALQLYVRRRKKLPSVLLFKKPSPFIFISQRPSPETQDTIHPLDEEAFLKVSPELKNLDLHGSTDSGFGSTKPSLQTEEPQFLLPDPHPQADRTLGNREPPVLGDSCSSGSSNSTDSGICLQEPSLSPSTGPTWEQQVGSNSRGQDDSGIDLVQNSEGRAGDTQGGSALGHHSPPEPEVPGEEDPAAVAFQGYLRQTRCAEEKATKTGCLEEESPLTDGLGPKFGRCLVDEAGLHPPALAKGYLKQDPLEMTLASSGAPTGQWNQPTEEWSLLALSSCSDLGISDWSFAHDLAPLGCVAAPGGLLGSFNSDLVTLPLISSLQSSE
- T1 sequence (looked up) 2: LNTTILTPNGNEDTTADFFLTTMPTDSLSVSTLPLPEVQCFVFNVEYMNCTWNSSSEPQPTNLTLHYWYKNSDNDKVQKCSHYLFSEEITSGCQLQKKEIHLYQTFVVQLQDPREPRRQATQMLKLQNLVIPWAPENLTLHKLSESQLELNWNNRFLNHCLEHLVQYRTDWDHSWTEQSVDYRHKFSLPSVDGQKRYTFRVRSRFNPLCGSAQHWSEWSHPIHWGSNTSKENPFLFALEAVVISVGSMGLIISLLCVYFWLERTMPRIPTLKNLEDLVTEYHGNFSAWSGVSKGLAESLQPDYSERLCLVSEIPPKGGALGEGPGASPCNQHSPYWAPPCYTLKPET
- METHOD_SUMMARY: cell-based or functional assay
Measured pSTAT3 MFI, CD4+ T cells, 100 nM (unstimulated 1778), listed per entry.
API: value field is a number in MFI; no unit string.

Observe how each entry below is paired with its result.
DR442(DR236-DR232) (bispecific antibody) QVQLQESGGGSVQAGGSLRLSCAASRFTYSSYCMGWFRQAPGKEREGVASIDSDGSTSYTDSVKGRFTISKDNAKNTLYLQMNSLKPEDTAMYYCALDLMSTVVPGFCGFLLSAGMDYWGKGTQVTVSSGGGSQVQLQESGGGSVQAGGSLRLSCVASGYTSCMGWFRQAPGKEREAVATIYTRGRSIYYADSVKGRFTISQDNAKNTLYLQMNSLKPEDIAMYSCAAGGYSWSAGCEFNYWGQGTQVTVSSASHHHHHH; 3110
DR471(DR241-DR231) (bispecific antibody) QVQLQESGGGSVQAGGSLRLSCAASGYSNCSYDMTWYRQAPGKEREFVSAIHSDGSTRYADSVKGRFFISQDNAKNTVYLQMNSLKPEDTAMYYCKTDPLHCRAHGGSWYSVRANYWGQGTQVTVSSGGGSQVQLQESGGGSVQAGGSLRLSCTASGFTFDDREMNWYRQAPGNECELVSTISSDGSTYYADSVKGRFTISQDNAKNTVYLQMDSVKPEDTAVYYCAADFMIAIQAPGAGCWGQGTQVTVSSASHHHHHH; 6240

Challenge: Need pSTAT3 MFI, CD4+ T cells, 100 nM (unstimulated 1778), item DR392(DR229-DR236) (bispecific antibody) QVQLQESGGGLVQPGGSLRLSCTASGFSFSSYPMTWARQAPGKGLEWVSTIASDGGSTAYAASVEGRFTISRDNAKSTLYLQLNSLKTEDTAMYYCTKGYGDGTPAPGQGTQVTVSSGGGSQVQLQESGGGSVQAGGSLRLSCAASRFTYSSYCMGWFRQAPGKEREGVASIDSDGSTSYTDSVKGRFTISKDNAKNTLYLQMNSLKPEDTAMYYCALDLMSTVVPGFCGFLLSAGMDYWGKGTQVTVSSASHHHHHH
Response given: 3340

Data origin, for the record: patent US20250163162A1
